biological target: CD10 (recombinant human neprilysin, R&D systems, Ref 1182-ZN) (human, UniProt P08473 53-750); test: cell-based or functional assay
Sequence (P08473 53-750 limits assumed): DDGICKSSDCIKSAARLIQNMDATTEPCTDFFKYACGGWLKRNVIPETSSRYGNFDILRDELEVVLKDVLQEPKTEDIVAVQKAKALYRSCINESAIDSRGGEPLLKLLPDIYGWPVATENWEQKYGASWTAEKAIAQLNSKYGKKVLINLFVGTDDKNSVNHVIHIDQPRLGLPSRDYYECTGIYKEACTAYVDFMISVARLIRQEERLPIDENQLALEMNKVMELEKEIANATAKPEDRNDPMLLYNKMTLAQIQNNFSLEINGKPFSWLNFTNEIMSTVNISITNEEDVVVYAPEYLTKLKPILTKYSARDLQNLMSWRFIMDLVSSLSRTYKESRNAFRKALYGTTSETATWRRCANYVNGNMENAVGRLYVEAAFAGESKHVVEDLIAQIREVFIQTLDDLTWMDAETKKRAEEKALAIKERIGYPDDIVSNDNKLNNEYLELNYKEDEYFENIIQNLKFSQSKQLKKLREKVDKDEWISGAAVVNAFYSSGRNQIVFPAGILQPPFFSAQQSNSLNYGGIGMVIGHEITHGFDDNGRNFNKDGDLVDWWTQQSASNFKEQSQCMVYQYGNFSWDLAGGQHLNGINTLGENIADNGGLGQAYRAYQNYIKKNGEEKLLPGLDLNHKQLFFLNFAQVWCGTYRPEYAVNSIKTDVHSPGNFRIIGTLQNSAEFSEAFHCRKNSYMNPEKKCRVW
* marks the point of attachment. Doxorubicin(3'-N) = COc1cccc2c1C(=O)c1c(O)c3c(c(O)c1C2=O)C[C@@](O)(C(=O)CO)C[C@@H]3O[C@H]1C[C@H](N*)[C@H](O)[C@H](C)O1; Phosphonoacetyl = O=C(CP(=O)(O)O)*
Property: % Metabolites released after 3 h with CD10 10 nM (%)
Give just the number in %; leave the unit off.

Inquiry: Which % Metabolites released after 3 h with CD10 10 nM is reported for this binder? Phosphonoacetyl-GPGP-{Doxorubicin(3'-N)} (SMILES COc1cccc2c1C(=O)c1c(O)c3c(c(O)c1C2=O)C[C@@](O)(C(=O)CO)C[C@@H]3O[C@H]1C[C@H](NC(=O)[C@@H]2CCCN2C(=O)CNC(=O)[C@@H]2CCCN2C(=O)CNC(=O)CP(=O)(O)O)[C@H](O)[C@H](C)O1) [PhAc-GPGP-doxorubicin]
Reply text: 0
